The reported measurements were obtained from patent US4874776A.

assay: Acute toxicity (LD50, Litchfield and Wilcoxon) in the mouse; conditions: in vivo, ip, male, read-out: DL50 (the source's name)
measurement_name: LD50 (mg/kg)
// return numeric value only (unit: mg/kg, not printed)

Enquiry: For CCOC(=O)N1CSCC1C(=O)O (stereo not shown) [YS 795] , write its LD50.
Return: 380

---

test: Acute toxicity (LD50, Litchfield and Wilcoxon) in the rat; details: in vivo, ip, male, read-out: DL50 (the source's name)
measurement_name: LD50 (mg/kg)
// return numeric value only (unit: mg/kg, not printed)

Enquiry: For CCOC(=O)N1CSCC1C(=O)O (stereo not shown) , write its LD50.
Return: 415
